Just for reference, the supplement of paper PMC11246515 is where these values come from.

Please respond with reported total protein half-life in vivo for every item in the list.
Test: total protein half-life in vivo (active degradation + dilution); higher = more stable protein
Details: E. coli NCM3722 delta-clpP; growth: N-lim chemostat; doubling time 6 h
# unit: h | format: bare number

Fill in total protein half-life in vivo for record `MYHDVSYLLSRLINGPLSLRQIYFASSNGPVPDLAYQVDFPRLEIVLEGEFVDTGAGATLVPGDVLYVPAGGWNFPQWQAPATTFSVLFGKQQLGFSVVQWDGKQYQNLAKQHVARRGPRIGSFLLQTLNEMQMQPQEQQTARLIVASLLSHCRDLLGSQIQTASRSQALFEAIRDYIDERYASALTRESVAQAFYISPNYLSHLFQKTGAIGFNEYLNHTRLEHAKTLLKGYDLKVKEVAHACGFVDSNYFCRLFRKNTERSPSEYRRQYHSQLTEKPTTPE` 3.94

Fill in total protein half-life in vivo for record `MPRFAANLSMMFTEVPFIERFAAARKAGFDAVEFLFPYNYSTLQIQKQLEQNHLTLALFNTAPGDINAGEWGLSALPGREHEAHADIDLALEYALALNCEQVHVMAGVVPAGEDAERYRAVFIDNIRYAADRFAPHGKRILVEALSPGVKPHYLFSSQYQALAIVEEVARDNVFIQLDTFHAQKVDGNLTHLIRDYAGKYAHVQIAGLPDRHEPDDGEINYPWLFRLFDEVGYQGWIGCEYKPRGLTEEGLGWFDAWR` 2.21
